Values of IC50 for Serine/threonine-protein kinase mTOR (Homo sapiens, UniProt P42345), collected from a number of published sources:

[in] # lookup: IC50 of CC1Cc2nc(-c3ccc(NC(=O)NC4CC4)cc3)nc(N3CCOC[C@@H]3C)c2C(C)S1(=O)=O (some centres unmarked)
[out] < 0.1 µM

[in] # lookup: IC50 of O=c1[nH]c2ncc(-c3cnc4[nH]ccc4c3)cc2n1CC1CCS(=O)(=O)CC1
[out] < 0.05 µM

[in] # lookup: IC50 of COc1ccccc1-n1c(=O)[nH]c2c(C(N)=O)nc(-c3cccc(C(F)(F)F)c3)nc21
[out] > 30 µM

Others:
[in] # lookup: IC50 of O=S1(=O)CCC(c2nc3c(-c4ccc(-c5ccccc5)nc4)cnn3c3[nH]cc(Cl)c23)CC1
[out] 0.001 to 0.01 µM

[in] # lookup: IC50 of CC(O)c1ccc(-c2ccc3c(N4CCOCC4)nc(-c4ccc(NC(=O)Nc5ccc(C(=O)N(C)C)cc5F)cc4)nc3c2)o1 (centres unmarked)
[out] 0.05 to 0.2 µM

[in] # lookup: IC50 of CCNC(=O)Nc1ccc(-c2nc3c(c(N4CCOC[C@@H]4C)n2)[C@H](C)S(=O)(=O)C3)cc1
[out] < 0.1 µM

[in] # lookup: IC50 of Cc1c(-c2cnc3[nH]ccc3c2)cnc2[nH]c(=O)n(CC3CCOCC3)c12
[out] < 0.05 µM

[in] # lookup: IC50 of Nc1c[nH]c2ncc(-c3cnc4[nH]c(=O)n(CC5CCOCC5)c4c3)cc12
[out] 0.05 to 0.1 µM

* * *

Values of IC50 for Serine/threonine-protein kinase mTOR (Homo sapiens, UniProt P42345), collected from a number of published sources:

Worked set:
[in] Please tell me: IC50 of Cc1n[nH]c2c1c(CC1CCC(C)(C(=O)O)CC1)nc1c(-c3ccc(-c4ccccc4)nc3)cnn12 (stereo not drawn) , system Serine/threonine-protein kinase mTOR (Homo sapiens, UniProt P42345)?
[out] 1 to 10 nM

[in] Please tell me: IC50 of Cc1cn(C2CCN(C(=O)CO)CC2)c2nc3c(-c4cnc5ccc(F)cc5c4)cnn3c(N)c12 , system Serine/threonine-protein kinase mTOR (Homo sapiens, UniProt P42345)?
[out] < 10 nM

Others:
[in] Please tell me: IC50 of CN(C)C(=O)c1ccc(NC(=O)Nc2ccc(-c3nc(N4CCOCC4)c4cc(F)c(-c5cccnc5)cc4n3)cn2)cc1 , system Serine/threonine-protein kinase mTOR (Homo sapiens, UniProt P42345)?
[out] 50 to 200 nM

[in] Please tell me: IC50 of Oc1cccc(-c2nc(N3CCOCC3)nc3c2ncn3Cc2ccccc2)c1 , system Serine/threonine-protein kinase mTOR (Homo sapiens, UniProt P42345)?
[out] < 1000 nM

[in] Please tell me: IC50 of CC(C)Cn1c(N2CCN(C=O)CC2)nc2c(N3CCOC[C@@H]3C)nc(-c3cnc(N)nc3)nc21 , system Serine/threonine-protein kinase mTOR (Homo sapiens, UniProt P42345)?
[out] 10 to 30 nM

[in] Please tell me: IC50 of CC(C)(C#N)C(=O)Nc1cccc(-c2cnc3c(N4CCOCC4)nc(-c4cnc(N)nc4)nc3c2)c1 , system Serine/threonine-protein kinase mTOR (Homo sapiens, UniProt P42345)?
[out] < 50 nM

[in] Please tell me: IC50 of Nc1ccc(-c2nc(N3CCOCC3)c3cc(-c4cccc(NS(=O)(=O)CCCF)c4F)cc(OCCO)c3n2)cn1 , system Serine/threonine-protein kinase mTOR (Homo sapiens, UniProt P42345)?
[out] 1 to 100 nM

[in] Please tell me: IC50 of CC(=O)N1CCN(c2nc3c(N4CCOCC4)nc(-c4cnc(N)nc4)nc3n2CC2CC2)C[C@H]1C , system Serine/threonine-protein kinase mTOR (Homo sapiens, UniProt P42345)?
[out] 10 to 30 nM

[in] Please tell me: IC50 of CCOc1ncc(-c2ccc3ncc4c(c3c2)n(-c2cn(C)nc2C)c(=O)n4C)cn1 , system Serine/threonine-protein kinase mTOR (Homo sapiens, UniProt P42345)?
[out] 74 nM

[in] Please tell me: IC50 of O=C1COC(Cn2c(=O)[nH]c3ncc(-c4cnc5[nH]ccc5c4)cc32)CN1 (stereo not drawn) , system Serine/threonine-protein kinase mTOR (Homo sapiens, UniProt P42345)?
[out] < 50 nM

[in] Please tell me: IC50 of CC(=O)Nc1cc(-c2cnc3c(N4CCOCC4)nc(-c4cnc(N)nc4)nc3c2)ccc1N1CCN(C)CC1 , system Serine/threonine-protein kinase mTOR (Homo sapiens, UniProt P42345)?
[out] < 50 nM

* * *

Values of IC50 for Serine/threonine-protein kinase mTOR (Homo sapiens), collected from a number of published sources:

[in] Please tell me: IC50 of Cc1nn(C)cc1-n1c(=O)n(C)c2cnc3ccc(-c4cncc(N(C)C5CCC5)c4)cc3c21 , system Serine/threonine-protein kinase mTOR (Homo sapiens)?
[out] 0.007 µM

[in] Please tell me: IC50 of CCc1ncc(-c2ccc3ncc4c(c3c2)n(-c2cn(C)nc2C)c(=O)n4C)cc1N , system Serine/threonine-protein kinase mTOR (Homo sapiens)?
[out] 0.007 µM

[in] Please tell me: IC50 of CNC(=O)Nc1ccc(-c2nc(N3CCOC[C@@H]3C)nc3c2cnn3C2CCOCC2)cc1 , system Serine/threonine-protein kinase mTOR (Homo sapiens)?
[out] < 0.11 µM

[in] Please tell me: IC50 of O=[N+]([O-])c1ccc(Cn2cnc3c(-c4cccc(O)c4)nc(N4CCOCC4)nc32)cc1 , system Serine/threonine-protein kinase mTOR (Homo sapiens)?
[out] < 1 µM

[in] Please tell me: IC50 of CNc1ncc(-c2nc(N3CCOC[C@H]3C)c3cc(-c4cccc(NS(=O)(=O)CCCF)c4F)cc(OC)c3n2)cn1 , system Serine/threonine-protein kinase mTOR (Homo sapiens)?
[out] 0.1 to 1 µM

[in] Please tell me: IC50 of O=c1[nH]c2ncc(-c3cnc4[nH]ccc4c3)cc2n1CCN1CCNCC1 , system Serine/threonine-protein kinase mTOR (Homo sapiens)?
[out] 0.05 to 0.1 µM

[in] Please tell me: IC50 of Cn1cc(-c2cc(-c3ccc4ncncc4c3)ccn2)n(-c2ccc(C(C)(C)C#N)cc2)c1=O , system Serine/threonine-protein kinase mTOR (Homo sapiens)?
[out] 0.1 to 10 µM

[in] Please tell me: IC50 of CCOc1ccc(-c2ccc3ncc4c(c3c2)n(-c2cn(CC(=O)N(C)CC)nc2C)c(=O)n4C)cn1 , system Serine/threonine-protein kinase mTOR (Homo sapiens)?
[out] 0.009 µM

[in] Please tell me: IC50 of Cc1nc2cnc3ccc(-c4cnc(N)c(C(F)(F)F)c4)nc3c2n1C1CCN(C(=O)[C@H](C)O)CC1 , system Serine/threonine-protein kinase mTOR (Homo sapiens)?
[out] < 0.1 µM

[in] Please tell me: IC50 of CC(C)CCC(=O)Nc1cccc(-c2cnc3c(N4CCOCC4)nc(-c4cnc(N)nc4)nc3c2)c1 , system Serine/threonine-protein kinase mTOR (Homo sapiens)?
[out] < 0.05 µM

[in] Please tell me: IC50 of CC(=O)N(C)c1cccc(-c2cnc3c(N4CCOCC4)nc(-c4cnc(N)nc4)nc3c2)c1 , system Serine/threonine-protein kinase mTOR (Homo sapiens)?
[out] 0.05 to 0.2 µM

[in] Please tell me: IC50 of CN1CCN(CC(=O)Nc2ccc(F)c(-c3cnc4c(N5CCOCC5)nc(-c5cnc(N)nc5)nc4c3)c2)CC1 , system Serine/threonine-protein kinase mTOR (Homo sapiens)?
[out] < 0.05 µM

[in] Please tell me: IC50 of COCc1ccc(-c2ccc3ncc4c(c3c2)n(-c2cn(C(C)C)nc2C)c(=O)n4C)cn1 , system Serine/threonine-protein kinase mTOR (Homo sapiens)?
[out] 0.095 µM

[in] Please tell me: IC50 of CN(C)C(=O)c1ccc(NC(=O)Nc2ccc(-c3nc(N4CCOCC4)c4ccc(-c5ccncc5F)cc4n3)cc2)cc1 , system Serine/threonine-protein kinase mTOR (Homo sapiens)?
[out] < 0.05 µM

[in] Please tell me: IC50 of CNc1cc(-c2ccc3ncc4c(c3c2)n(-c2cn(C)nc2C)c(=O)n4C)cnc1COC , system Serine/threonine-protein kinase mTOR (Homo sapiens)?
[out] 0.012 µM

[in] Please tell me: IC50 of O=c1[nH]c2ncc(-c3cnc4[nH]ccc4c3)cc2n1C1CCOCC1 , system Serine/threonine-protein kinase mTOR (Homo sapiens)?
[out] < 0.05 µM

* * *

Values of IC50 for Serine/threonine-protein kinase mTOR (Homo sapiens, UniProt P42345), collected from a number of published sources:

[in] Please tell me: IC50 of C[C@H](O)C(=O)Nc1cccc(-c2cnc3c(N4CCOCC4)nc(-c4cnc(N)nc4)nc3c2)c1 , system Serine/threonine-protein kinase mTOR (Homo sapiens, UniProt P42345)?
[out] < 0.05 µM

[in] Please tell me: IC50 of COc1cc(Cn2cnc3c(-c4cccc(O)c4)nc(N4CCOCC4)nc32)cc(OC)c1 , system Serine/threonine-protein kinase mTOR (Homo sapiens, UniProt P42345)?
[out] < 1 µM

Others:
[in] Please tell me: IC50 of NC1CCN(C(=O)c2ccc(NC(=O)Nc3ccc(-c4nc(N5CCOCC5)c5ccc(-c6cncnc6)cc5n4)cc3F)cc2)C1 (stereo in doubt) , system Serine/threonine-protein kinase mTOR (Homo sapiens, UniProt P42345)?
[out] < 0.05 µM

[in] Please tell me: IC50 of CC(C)Cn1c(N2CCCN(S(C)(=O)=O)CC2)nc2c(N3CCOCC3)nc(-c3cnc(N)nc3)nc21 , system Serine/threonine-protein kinase mTOR (Homo sapiens, UniProt P42345)?
[out] 0.01 to 0.03 µM

[in] Please tell me: IC50 of CC(=O)Nc1ccc(NC(=O)Nc2ccc(-c3nc(N4CCOCC4)c4ncc(-c5cccnc5F)cc4n3)cc2)cc1 , system Serine/threonine-protein kinase mTOR (Homo sapiens, UniProt P42345)?
[out] < 0.05 µM

[in] Please tell me: IC50 of C[C@@H](O)C(=O)N1Cc2nc3c(-c4ccc(-c5ccccc5)nc4)cnn3c(N)c2C1 , system Serine/threonine-protein kinase mTOR (Homo sapiens, UniProt P42345)?
[out] 0.01 to 0.1 µM

[in] Please tell me: IC50 of CC(C)(Cc1ccccc1-c1ccccc1)Nc1nc(N2CCOCC2)nc(-n2c(C(F)F)nc3ccccc32)n1 , system Serine/threonine-protein kinase mTOR (Homo sapiens, UniProt P42345)?
[out] > 0.5 µM
